conditions: human gut metagenome, 24 h, 2 µM; also: call rule not given here
PROPERTY_LABEL: Bacterial Biotransformation

COMPOUND	PROPERTY_LABEL	VALUE
C[C@]12C=CC(=O)C=C1CC[C@@H]1[C@@H]2C(=O)C[C@@]2(C)[C@H]1CC[C@]2(O)C(=O)CO [PREDNISONE]	Bacterial Biotransformation	Compound metabolized
C[N+]12CCC(CC1)C(OC(=O)C(O)(c1ccccc1)c1ccccc1)C2.[Br-] (configuration not stated) [CLIDINIUM BROMIDE]	Bacterial Biotransformation	Compound NOT metabolized
O=C1N=C([O-])NC1(c1ccccc1)c1ccccc1.[Na+] [PHENYTOIN SODIUM]	Bacterial Biotransformation	Compound metabolized
O=C(O)CCC(=O)O.O=C(O[C@H]1CN2CCC1CC2)N1CCc2ccccc2[C@@H]1c1ccccc1 [SOLIFENACIN SUCCINATE]	Bacterial Biotransformation	Compound NOT metabolized
CN1[C@@H]2CC[C@H]1C[C@@H](OC(=O)c1c[nH]c3ccccc13)C2 [TROPISETRON]	Bacterial Biotransformation	Compound NOT metabolized
CCCCCNC(=N)N/N=C/c1c[nH]c2ccc(OC)cc12.O=C(O)/C=C\C(=O)O [TEGASEROD MALEATE]	Bacterial Biotransformation	Compound NOT metabolized

GET /values?readout=Bacterial Biotransformation&item= COc1cc2nc(N3CCN(C(=O)C4COc5ccccc5O4)CC3)nc(N)c2cc1OC.CS(=O)(=O)O (configuration not stated) [DOXAZOSIN MESYLATE]
Compound metabolized

Please report the recorded Bacterial Biotransformation for CCCN(CCC)CCc1cccc2c1CC(=O)N2 [ROPINIROLE] .
Compound NOT metabolized

====

settings: human gut metagenome, 24 h, 2 µM
PROPERTY_LABEL: Bacterial Biotransformation

Some solved cases for reference:
COMPOUND	VALUE
COc1cc(C(=O)NCc2ccc(OCCN(C)C)cc2)cc(OC)c1OC [TRIMETHOBENZAMIDE]	Compound NOT metabolized
CCCN1C[C@H](CSC)C[C@@H]2c3cccc4[nH]cc(c34)C[C@H]21.CS(=O)(=O)O [PERGOLIDE MESYLATE]	Compound NOT metabolized
CC1=C(CC(=O)O)c2cc(F)ccc2/C1=C\c1ccc([S+](C)[O-])cc1 (stereo not given)	Compound metabolized
CC(C)[C@H]1CC[C@H](C(=O)N[C@H](Cc2ccccc2)C(=O)O)CC1 [NATEGLINIDE]	Compound metabolized

# next compound below
Find the recorded Bacterial Biotransformation belonging to CC(C)(C)NC(=O)[C@H]1CC[C@H]2[C@@H]3CC[C@H]4NC(=O)C=C[C@]4(C)[C@H]3CC[C@]12C [FINASTERIDE] and report it.
Compound metabolized

====

settings: human gut metagenome, 24 h, 2 µM
PROPERTY_LABEL: Bacterial Biotransformation

Some solved entries appear below for comparison.
MOLECULE	PROPERTY_LABEL	VALUE
COc1ccc(CN2CCNCC2)c(OC)c1OC.Cl.Cl [TRIMETAZIDINE DIHYDROCHLORIDE]	Bacterial Biotransformation	Compound NOT metabolized
CCOC(=O)[C@H](CCc1ccccc1)N[C@@H](C)C(=O)N1Cc2ccccc2C[C@H]1C(=O)O	Bacterial Biotransformation	Compound metabolized
O=C(O)c1cc(/N=N/c2ccc(S(=O)(=O)Nc3ccccn3)cc2)ccc1O [SULFASALAZINE]	Bacterial Biotransformation	Compound metabolized
C[C@]12CCC(=O)C=C1[C@@H]1C[C@@H]1[C@H]1[C@@H]3[C@@H]4C[C@@H]4[C@@]4(CCC(=O)O4)[C@@]3(C)CC[C@@H]12 [DROSPIRENONE]	Bacterial Biotransformation	Compound metabolized
CNCC[C@H](Oc1cccc2ccccc12)c1cccs1 [DULOXETINE]	Bacterial Biotransformation	Compound NOT metabolized

Fill blank: measured Bacterial Biotransformation of the molecule CCCCC(=O)O[C@]1(C(=O)CO)[C@@H](C)C[C@H]2[C@@H]3CCC4=CC(=O)C=C[C@]4(C)[C@@]3(F)[C@@H](O)C[C@@]21C [BETAMETHASONE VALERATE] is ____.
Compound metabolized

Return reported Bacterial Biotransformation; argument: COc1ccc([C@@H]2Sc3ccccc3N(CCN(C)C)C(=O)[C@@H]2OC(C)=O)cc1 [DILTIAZEM]
Compound NOT metabolized

// returns reported Bacterial Biotransformation for input CN1CCN2c3ccccc3Cc3ccccc3C2C1 (stereo not given) [MIANSERIN]
Compound NOT metabolized

I'd like to know its Bacterial Biotransformation. The molecule in question is O=C1C(CC[S+]([O-])c2ccccc2)C(=O)N(c2ccccc2)N1c1ccccc1 (stereo not given) [SULFINPYRAZONE]
Compound metabolized

For C[C@@H](c1ncncc1F)[C@](O)(Cn1cncn1)c1ccc(F)cc1F [VORICONAZOLE] , what is its reported Bacterial Biotransformation?
Compound metabolized
